system: T1, C-terminally truncated Sso7c4 (Sulfolobus solfataricus P2, UniProt A0A0E3K9N8 1-48, del49-54)
T1 chain: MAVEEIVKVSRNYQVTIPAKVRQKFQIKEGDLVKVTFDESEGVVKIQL
protocol-description: fluorescence polarization; 20 mM Tris-Cl pH 7.5, no added salt, 25 C; FP with 100 nM FAM-DNA, 1 h at room temperature
protocol-conditions: protein: recombinant; chain copies: 2; label: 5'-FAM; blunt, self-complementary
quantity-kind: pKd
One number for each entry, as −log10 of the molar value.

Please review the entries below; each comes with its answer.
>  <binder>
5'-FAM-20-bp DNA (dsDNA) DNA 1: CCAACACTGGCCAGTGTTGG DNA 2: CCAACACTGGCCAGTGTTGG

>  <numeric-value>
4.92

$$$$
>  <binder>
5'-FAM-8-bp DNA (dsDNA) DNA 1: CGCTAGCG DNA 2: CGCTAGCG

>  <numeric-value>
4.80

$$$$

# ---- query binder ----
Lookup: Record request: pKd value, item 5'-FAM-10-bp DNA (dsDNA) DNA 1: CCTACGTAGG DNA 2: CCTACGTAGG
Found: 4.96
